The measured values listed here are drawn from the kinase profiling compilation of Christmann-Franck et al. (2016).

kinase still bound, per cent of control values, listed per item
biological target: DCLK2 (human) (UniProt Q8N568); experiment: KINOMEscan competition binding; conditions: compound 10.0 µM
Sequence (Q8N568 whole entry, looked up): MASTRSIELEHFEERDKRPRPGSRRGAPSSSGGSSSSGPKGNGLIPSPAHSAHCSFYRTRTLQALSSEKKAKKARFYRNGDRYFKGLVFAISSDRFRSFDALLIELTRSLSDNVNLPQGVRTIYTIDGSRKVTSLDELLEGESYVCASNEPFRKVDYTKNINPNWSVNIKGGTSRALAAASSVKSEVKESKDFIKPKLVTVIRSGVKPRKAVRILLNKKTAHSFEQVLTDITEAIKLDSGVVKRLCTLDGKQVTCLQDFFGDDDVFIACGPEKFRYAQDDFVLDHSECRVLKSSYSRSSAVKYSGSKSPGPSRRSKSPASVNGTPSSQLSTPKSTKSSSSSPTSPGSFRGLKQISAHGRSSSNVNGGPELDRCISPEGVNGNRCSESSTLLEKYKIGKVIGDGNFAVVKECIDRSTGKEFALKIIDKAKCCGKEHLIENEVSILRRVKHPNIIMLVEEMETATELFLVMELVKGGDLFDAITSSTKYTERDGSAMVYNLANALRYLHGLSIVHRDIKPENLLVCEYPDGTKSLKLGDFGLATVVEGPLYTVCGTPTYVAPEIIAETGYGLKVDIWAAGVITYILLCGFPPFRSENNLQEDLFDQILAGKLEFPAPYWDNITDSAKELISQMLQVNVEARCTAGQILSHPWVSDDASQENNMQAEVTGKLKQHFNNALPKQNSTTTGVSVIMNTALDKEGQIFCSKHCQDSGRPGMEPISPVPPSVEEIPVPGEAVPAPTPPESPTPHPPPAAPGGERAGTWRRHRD
measured parameter: kinase still bound, per cent of control (%)

>>> df
                                    compound  measured
 0  COc1cc2c(Nc3ccc(NC(=O)c4ccccc4)cc3)ncnc2cc1OCCCN1CCOCC1       100
 1  CCCS(=O)(=O)Nc1ccc(F)c(C(=O)c2c[nH]c3ncc(Cl)cc23)c1F        61
 2  CC(=O)c1c(C)c2cnc(Nc3ccc(N4CCNCC4)cn3)nc2n(C2CCCC2)c1=O       2.9
 3  COc1cc(C)c(Sc2cnc(NC(=O)c3ccc(CNC(C)C(C)C)cc3)s2)cc1C(=O)N1CCN(C(C)=O)CC1 (stereo unspecified)       100
 4  O=c1[nH]c2ccccc2n1C1CCN(Cc2ccc(-c3nc4cc5[nH]cnc5cc4nc3-c3ccccc3)cc2)CC1        92
 5  N#C/C(=C1/Nc2ccccc2S1)c1ccnc(NCCc2cccnc2)n1       100
 6  CCN(CCO)CCCOc1ccc2c(Nc3cc(CC(=O)Nc4cccc(F)c4)[nH]n3)ncnc2c1       100
 7  CCOc1cc(N2CCC(O)CC2)ccc1Nc1ncc2c(n1)N(C)c1ccccc1C(=O)N2C      0.65
 8         COc1cc2ncnc(Nc3cccc(Cl)c3)c2cc1OC        88
 9  CNC(=O)Nc1ccc(-c2nc(N3CC4CCC(C3)O4)c3cnn(C4CCC5(CC4)OCCO5)c3n2)cc1        97
10  N#Cc1cc(-c2ccnc(Nc3ccc(-n4cnc(-c5cccnc5)n4)cc3)n2)cc(N2CCOCC2)c1       100

====

molecular target: CDC2L2 (human); assay: KINOMEscan competition binding; conditions: compound 10.0 µM
Rule for this label: true means kinase still bound, per cent of control is less than 80%; false means kinase still bound, per cent of control is at least 80%.

>>> df
                               query_smiles    assay_system  group
0  CCc1nc(-c2cccc(C)c2)c(-c2ccnc(NC(=O)c3ccccc3)c2)s1  CDC2L2 (human)  false
1  N#Cc1cc(-c2ccnc(Nc3ccc(-n4cnc(-c5cccnc5)n4)cc3)n2)cc(N2CCOCC2)c1  CDC2L2 (human)   true
2  C=CC(=O)Nc1ccc(C(=O)c2sc(Nc3ccc(N4CCN(C)CC4)cc3OC)nc2N)cc1  CDC2L2 (human)  false
3  CCN(CCO)CCCOc1ccc2c(Nc3cc(CC(=O)Nc4cccc(F)c4)[nH]n3)ncnc2c1  CDC2L2 (human)   true
4  COc1ccc(N(C(=O)Oc2cc(C(=O)Nc3cccc(C(F)(F)F)c3)ccc2C)c2ccnc(Nc3ccc(N4CCN(C)CC4)cc3)n2)c(OC)c1  CDC2L2 (human)   true
5  COc1cc(N2CCC(C(N)=O)CC2)ccc1Nc1nc(N)c(Cl)c(Nc2ccccc2S(=O)(=O)C(C)C)n1  CDC2L2 (human)  false
6  CCCS(=O)(=O)Nc1ccc(F)c(C(=O)c2c[nH]c3ncc(Cl)cc23)c1F  CDC2L2 (human)  false
7  CCOc1cc(N2CCC(O)CC2)ccc1Nc1ncc2c(n1)N(C)c1ccccc1C(=O)N2C  CDC2L2 (human)  false
